Assay: in vitro
Settings: dog

compound | CC50 at 72 h
[2H]C([2H])([2H])OC(=O)OCOc1c2n(ccc1=O)N([C@@H]1c3ccccc3SCc3c1ccc(F)c3F)[C@@H]1COC3(CC3)CN1C2=O [DS1837] | > 20 µM
[2H]C([2H])([2H])OC(=O)OCOc1c2n(ccc1=O)N([C@]1([2H])c3ccccc3SCc3c1ccc(F)c3F)[C@@H]1COC3(CC3)CN1C2=O [DS1838] | > 20 µM

* * *

Experiment: Cytotoxicity test in MDCK cells (CPE method, 72 hours)
Conditions: dog

compound | CC50 at 72 h
[2H][C@@]1(N2[C@@H]3COC4(CC4)CN3C(=O)c3c(OCOP(=O)(O)O)c(=O)ccn32)c2ccccc2[Se]Cc2c1ccc(F)c2F [DS1498] | > 20 µM
